Origin of values: PubChem BioAssay AID1159580

# Protocol Text: chemical genetic growth profiling, strain panel (AID 1159580);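 also: tested at 20 µM; growth read once vehicle control cultures reached saturation at 30 °C; 1 = growth at the plate median or of vehicle wells; lower values mean less growth of the strain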
# Study Conditions: S. cerevisiae deletion strains, growth OD, locus YKL009W, strain mrt4, active compounds read low
The whole screen tested about 5,500 compounds, of which about 2,000 (36%) were called active. Inconclusive results (about 18%) are left out. This is one part of the list.
Metric: normalized growth
The response must contain the number and no unit.

Worked cases, normalized growth given:
# Compound, Assay Value
measured = [
    ("CNC(C)(C)Cc1ccccc1", 0.988),
    ("CC(C)c1cc2c(c(O)c1O)[C@@]1(C(=O)O)CCCC(C)(C)C1CC2 (stereo not given in full)", 0.95),
    ("CC(=O)O[C@@H]1C2CC[C@@H]3C1(C[C@@H](O)[C@@]1(O)[C@@H](C[C@H](O)C1(C)C)[C@]3(C)O)C[C@@]2(C)O (stereo not given in full)", 0.992),
    ("C/C(=C\\CO)CC[C@H](C)CCC[C@H](C)CCCC(C)C", 1.09),
    ("CC(=O)OC1CCC23CC1(C)CCC2C(C)(C)CC3OC(C)=O (stereo not given)", 0.992),
]

Problem: May I ask what normalized growth has been recorded for `COc1cc(OC)c2c(OC)c(-c3ccc4c(c3)OCO4)c(=O)oc2c1` ?
Result: 1

Problem: Any idea what normalized growth was measured for `COc1ccc(-c2c(O)c3c(OC)c4c(cc3oc2=O)OC(C)(C)C=C4)cc1` ?
Result: 0.935

Problem: Query (compound): `NS(=O)(=O)c1cc2c(cc1Cl)NCNS2(=O)=O` ; field requested: normalized growth
Result: 1.01

Problem: Recorded normalized growth of `COc1ccc(-c2c(OC)c3c(OC)c4c(cc3oc2=O)OC(C)(C)C=C4)cc1` , please.
Result: 1.03

Problem: What value of measured normalized growth is listed for `O=c1c(O)c(-c2ccccc2)oc2ccccc12` ?
Result: 0.988

* * *

# Protocol Text: chemical genetic growth profiling, strain panel (AID 1159580)
# Study Conditions: S. cerevisiae deletion strains, growth OD, locus YGR078C, strain PAC10
The campaign covered roughly 5,500 compounds. About 2,000 (36%) were called active. Inconclusive results (about 18%) are left out. Cut-off read from the data, not from the text of the source: active = normalized growth mostly below about 0.91 (no sharp cut-off); inconclusive = no clear call, values can overlap the other calls; inactive = mostly above about 0.92. Some of the results follow.
Output constraint: value belongs to true (1) = active, false (0) = inactive

# Molecule, Label
rows = [
    ("N/C(=N/O)c1cnccc1C(F)(F)F", "false (0)"),
]

Problem: Recorded test outcome, item O=C1C(=O)c2ccccc2C(O)=C1C1CCC(c2ccc(Cl)cc2)CC1 (stereo not given)
Result: false (0)

Problem: Answer briefly: the call reported for `O=C(OCCNc1ccc([N+](=O)[O-])cn1)c1ccc([N+](=O)[O-])o1` in this assay.
Result: true (1)

Problem: Test call for this molecule, please: `COC(=O)c1c(-c2cc(OC)c(OC)c(OC)c2)c2ccnc(OCc3ncccn3)c2c(=O)n1Cc1ccnc(C)c1`
Result: false (0)

Problem: I'd appreciate the recorded outcome for `Cc1cc2c(cc1C)CSC(C)(c1ccc(F)cc1)SC2` from this test.
Result: false (0)

* * *

Listing of entries alongside the reported normalized growth.
# Protocol Text: chemical genetic growth profiling, strain panel (AID 1159580);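 also: tested at 20 µM; growth read once vehicle control cultures reached saturation at 30 °C; 1 = growth at the plate median or of vehicle wells; lower values mean less growth of the strain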
# Study Conditions: S. cerevisiae deletion strains, growth OD, locus YDL005C, strain med2, active compounds read low
Among all 5,500 compounds or so, about 2,000 (36%) were called active. Another 18% or so got no clear call; they are omitted. The list shows a part of the results.
Just the number, please, no unit after it.

# Molecule, normalized growth
rows = [
    ("CC12CCC(OC(=O)c3ccccc3)CC1CCc1ccccc12 (configuration not stated)", 0.987),
    ("OC[C@H]1O[C@@H](Oc2ccc(O)cc2)[C@H](O)[C@@H](O)[C@@H]1O", 1.01),
    ("CC12CCC(O)CC1CCc1ccccc12 (configuration not stated)", 0.97),
]

Problem: Which measured normalized growth value corresponds to `COc1cc(Cc2cnc(N)nc2N)cc(OC)c1OC` ?
Result: 1.02

Problem: Which normalized growth is listed for O=C(c1ccccc1)c1ccc2n1CCC2C(=O)O (configuration not stated) ?
Result: 0.967

Problem: Bench note: what normalized growth did `O=C(/C=C/c1ccc(O)cc1)c1ccc(O)cc1O` show?
Result: 1.02

Problem: Bench note: what normalized growth did `CCCCCCCCCCCCCCCC(=O)OC[C@H](NC(=O)C(Cl)Cl)[C@H](O)c1ccc([N+](=O)[O-])cc1` show?
Result: 1.05

Problem: Which value of normalized growth has been reported for `O=C(O)c1cc(=O)c2ccccc2[nH]1` in the records?
Result: 0.975

Problem: // query normalized growth value for entry CC(NC(C)(C)C)C(=O)c1cccc(Cl)c1 (configuration not stated)
Result: 0.993

Problem: Need normalized growth, item `O=C(/C=C/c1ccccc1)c1ccc(O)cc1O`
Result: 0.0755

Problem: Looking for the measured normalized growth of `COc1cc(OC)c2c(OC)c(-c3ccc4c(c3)OCO4)c(=O)oc2c1` , can you help?
Result: 0.983

Problem: Recorded normalized growth for `COc1cc([C@@H]2c3cc4c(cc3[C@H](O)[C@H]3COC(=O)[C@H]23)OCO4)cc(OC)c1OC` , please?
Result: 1.01

Problem: Reported normalized growth for CC1CC(OC(=O)c2ccccc2O)CC(C)(C)C1 (configuration not stated) : what is it?
Result: 0.968

Problem: So what does the record say about normalized growth for `CC(=O)Nc1c(I)cc(I)c(C(=O)O)c1I` ?
Result: 0.967

Problem: Entry under review: C[C@H]1C(=O)CCC2[C@]3(C)CC[C@@]4(C)C5CC(C)(C)CC[C@]5(C)CC[C@]4(C)C3CC[C@@]21C (some centres not stated) . Reported normalized growth?
Result: 0.995

* * *

# reported normalized growth; entries follow
# Protocol Text: chemical genetic growth profiling, strain panel (AID 1159580);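 also: tested at 20 µM; growth read once vehicle control cultures reached saturation at 30 °C; 1 = growth at the plate median or of vehicle wells; lower values mean less growth of the strain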
# Study Conditions: S. cerevisiae deletion strains, growth OD, locus YNL006W, strain LST8, active compounds read low
In all, about 5,500 compounds went through this assay and about 2,000 (36%) were called active. About 18% were inconclusive and are not listed. Some of the results follow.
Respond numerically, and do not add a unit to the figure.

# Compound, normalized growth
measured = [
    ("NNC(=O)c1oc2nc(-c3ccccc3)cc(-c3ccccc3)c2c1N", 0.978),
    ("O=[N+]([O-])c1ccc(NCc2ccc(Cl)c(Cl)c2)nc1", 0.916),
    ("O=C1c2ccccc2C(=O)c2sccc21", 0.593),
    ("O=[N+]([O-])c1ccc(Sc2ccccc2)c([N+](=O)[O-])c1", 0.87),
    ("CC(=O)c1ccc(Sc2ccccc2)c([N+](=O)[O-])c1", 0.855),
]

Problem: Which normalized growth is reported for this compound? `CC(C)OC(=O)Nc1cc(Cl)cc(Cl)c1`
Result: 0.968

Problem: Bench note: what normalized growth did `FC(F)(F)c1ccncc1-c1nc(-c2ccc(Cl)cc2)cs1` show?
Result: 0.99

Problem: So what's the measured normalized growth for this one? CC1SC(c2cccnc2)N(c2ccc(Cl)cc2)C1=O (centres undefined)
Result: 0.967

Problem: Can you share its normalized growth? I mean this compound: `O=C(Nc1ccc(F)cc1F)c1cc(Cl)ccc1O`
Result: 0.938

Problem: Item `CC(C)Sc1c(Cl)cccc1NC(=O)Nc1ccccc1` has what recorded normalized growth?
Result: 0.975

Problem: Which normalized growth is listed for `COc1ccc(OC)c2nc3c(nc12)C(=O)c1ccccc1-3` ?
Result: 0.973

Problem: What normalized growth value was documented for this compound, CCOC(=O)C(NC(=O)c1cccc(Cl)c1)(Nc1nc2ccccc2s1)C(F)(F)F (centres undefined) ?
Result: 0.966

Problem: Return reported normalized growth; argument: `O=C(/C=C/c1ccc(Cl)cc1)Nc1cccc(Cl)c1`
Result: 0.971

Problem: Which normalized growth value belongs to `Cn1ncc(-c2nc(-c3ccc(Cl)cc3)cs2)c1N` ?
Result: 0.95

Problem: Given the compound `O=C(OCCNc1ccc([N+](=O)[O-])cn1)c1ccc([N+](=O)[O-])o1` , what is its reported normalized growth?
Result: 0.933

Problem: Please look up its normalized growth: CC1SC(c2cccnc2)N(c2ccc(F)cc2F)C1=O (centres undefined)
Result: 0.986

Problem: Please give the measured normalized growth for this compound: N#CC(C(=O)Nc1cccc(C(F)(F)F)c1)C(=S)Nc1ccccc1Cl (centres undefined)
Result: 0.991

Problem: Dear colleague, I am looking for the recorded normalized growth of the following compound: `S=C(NCCc1csc2ccccc12)Nc1ccc(Cl)cc1`
Result: 0.96

* * *

# Protocol Text: chemical genetic growth profiling, strain panel (AID 1159580);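 also: tested at 20 µM; growth read once vehicle control cultures reached saturation at 30 °C; 1 = growth at the plate median or of vehicle wells; lower values mean less growth of the strain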
# Study Conditions: S. cerevisiae deletion strains, growth OD, locus YHR094C, strain hxt1, active compounds read low
Among all 5,500 compounds or so, about 2,000 (36%) were called active. About 18% were inconclusive and are not listed. Some of the results follow.
Measured normalized growth, listed per entry for reference.
API doc: respond with a numeric literal and nothing else, no unit.

# Molecule, normalized growth
records = [
    ("CC(C)Cn1c(=O)n(C)c(=O)c2[nH]cnc21", 0.985),
    ("CC(=O)Nc1c(I)cc(I)c(C(=O)O)c1I", 0.989),
]

Problem: Give its normalized growth value. Item: C[N+]12CCC(CC1)C(OC(=O)C(O)(c1ccccc1)c1ccccc1)C2 (configuration not stated)
Result: 0.982

Problem: Consider the molecule shown here: `O=C(O)CC[N+](=O)[O-]` What is its recorded normalized growth?
Result: 0.978

Problem: Entry `CNC(=O)N(C)c1nnc(C(C)(C)C)s1` has what normalized growth?
Result: 1.01

Problem: I'd like to know its normalized growth. The molecule in question is `COC(=O)c1cc(OC)c(=O)c2c(OC)c(OC)ccc2c1`
Result: 0.972

Problem: Fill in the blank: the reported normalized growth of COC(=O)CC1C(C)(C)C(=O)C2CC3(O)C4=CC(=O)OC(c5ccoc5)C4(C)CCC3C1(C)C2=O (configuration not stated) is ____.
Result: 0.985

Problem: Could you share which normalized growth value was measured for Cc1ccc(O)c(C(CCN(C(C)C)C(C)C)c2ccccc2)c1 (configuration not stated) ?
Result: 0.987

Problem: normalized growth for `COc1cc2cccc(OC)c(=O)c2c(OC)c1OC` ?
Result: 1.01

Problem: Record request: normalized growth value, item COc1cc2c(cc1OC)C(C)NCC2 (configuration not stated)
Result: 0.985

Problem: Look at this molecule and give its reported normalized growth. `O=C(N[C@@H](CO)[C@H](O)c1ccc([N+](=O)[O-])cc1)C(Cl)Cl`
Result: 1.01

Problem: Field request: normalized growth | item: CN1CCCCC1c1ccc(-c2cccnc2)nc1 (configuration not stated)
Result: 1.02
